For each entry below, report its IC50 (µg/mL), pseudovirus neutralization value.
# Subject Of Test: HIV-1 Env of isolate MGRM-C-009 (subtype C) (HIV-1)
# Experimental Details: cell-based or functional assay

I have this binder here, PGT-125 (antibody, V domains shown) VH: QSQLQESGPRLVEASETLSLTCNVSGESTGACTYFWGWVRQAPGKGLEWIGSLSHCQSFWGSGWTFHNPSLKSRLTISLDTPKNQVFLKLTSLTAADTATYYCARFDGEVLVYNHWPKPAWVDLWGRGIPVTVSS VL: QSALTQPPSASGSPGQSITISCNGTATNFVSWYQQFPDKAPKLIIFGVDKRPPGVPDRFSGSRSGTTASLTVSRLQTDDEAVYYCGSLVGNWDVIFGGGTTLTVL , and I need its recorded IC50 (µg/mL), pseudovirus neutralization. > 50 µg/mL

Any idea what IC50 (µg/mL), pseudovirus neutralization was measured for PGT-123 (antibody, V domains shown) VH: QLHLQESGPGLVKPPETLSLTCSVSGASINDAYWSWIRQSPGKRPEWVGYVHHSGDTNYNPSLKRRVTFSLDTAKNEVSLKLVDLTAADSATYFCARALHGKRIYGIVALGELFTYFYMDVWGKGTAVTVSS VL: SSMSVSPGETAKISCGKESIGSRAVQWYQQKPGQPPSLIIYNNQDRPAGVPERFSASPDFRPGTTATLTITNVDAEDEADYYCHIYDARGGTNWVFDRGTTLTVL ? > 50 µg/mL

Item PGT-126 (antibody, V domains shown) VH: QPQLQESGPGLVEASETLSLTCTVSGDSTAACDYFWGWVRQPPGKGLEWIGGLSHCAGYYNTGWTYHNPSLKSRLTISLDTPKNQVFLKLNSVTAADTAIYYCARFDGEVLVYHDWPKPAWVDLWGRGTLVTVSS VL: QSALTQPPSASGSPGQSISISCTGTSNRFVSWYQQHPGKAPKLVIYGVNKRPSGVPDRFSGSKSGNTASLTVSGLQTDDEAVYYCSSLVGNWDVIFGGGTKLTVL has what recorded IC50 (µg/mL), pseudovirus neutralization? > 50 µg/mL
